- measurementNotes: protein stability index of a GFP-peptide fusion (yeast GPS) (PSI 1-4); higher = more stable; sorted into four equal gates, so the index is relative within each strain
- statedConditions: san1∆
metricName: protein stability index
Quick one: just the number, no unit, thanks!

# count of solved cases: 5
* VPFESLQGVTYPVLRKL [YIL149C/MLP2] | 2.32
* IPMSKTIKDLVGGKSTV [FAS2] | 2.85
* DKPYLLRIVTHLAICLD [YDL116W/NUP84] | 1.32
* SEDVSRDHEKDTYRTLM [YIL149C/MLP2] | 3.43
* NSLSSNLSSLIVEINNV [YJL041W/NSP1] | 2.35

In plain terms, NTSSLQSFQNPFTASQS [YIL149C/MLP2] has a documented protein stability index of 2.45

In plain terms, KLLKVCLTMFEDRNESV [ECM29] has a documented protein stability index of 2.58

---

- measurementNotes: protein stability index of a GFP-peptide fusion (yeast GPS) (PSI 1-4); higher = more stable; sorted into four equal gates, so the index is relative within each strain
- statedConditions: pdr5∆
If the reported protein stability index equals or exceeds 3, assign fulfilled. If not, assign not fulfilled.

Check if protein stability index >= 3 (inclusive). Item: ARQQVAQQLRNQQQQQQ [GAL11] fulfilled

Check if protein stability index >= 3 (inclusive). Item: TSASNTSMNGVHNTVAA [SNF5] not fulfilled

Check if protein stability index >= 3 (inclusive). Item: AEVNGGDDEATEIISTL [BRR2] fulfilled

---

- measurementNotes: protein stability index of a GFP-peptide fusion (yeast GPS) (PSI 1-4); higher = more stable; sorted into four equal gates, so the index is relative within each strain
- statedConditions: ubr1∆
metricName: protein stability index
Quick one: just the number, no unit, thanks!

# count of solved cases: 3
• NNNNKSINKNNKEMHTD [SSN2] = 3.17
• FMKSVIRSREAFSYEQA [DIS3] = 2.71
• IRDNKLVSEKIINSTAL [RPC82] = 3.14

Query sequence follows.
In plain terms, LRKQYSAIDEEIEELID [SMC3] has a documented protein stability index of 3.26

---

- measurementNotes: protein stability index of a GFP-peptide fusion (yeast GPS) (PSI 1-4); higher = more stable; sorted into four equal gates, so the index is relative within each strain
- statedConditions: pdr5∆
Catalogue of protein stability index readings, one per entry.
Quick one: just the number, no unit, thanks!

# count of solved cases: 4
* PRGTAKLIIHRKNDNAN [SMC3] | 2.34
* GGTNEDDFTDAIQFVKE [YCS4] | 2.6
* EPENNTVIEGVKEESQP [SWI3] | 3.13
* NNKILEKCKEINVETVY [BRR2] | 2

In plain terms, DSNKTLLHNHLKSIESL [SMC2] has a documented protein stability index of 2.44

In plain terms, VEINSSESDLDEDKNFP [ESC2] has a documented protein stability index of 2.66

---

- measurementNotes: protein stability index of a GFP-peptide fusion (yeast GPS) (PSI 1-4); higher = more stable; sorted into four equal gates, so the index is relative within each strain
- statedConditions: pdr5∆
If the reported protein stability index equals or exceeds 3, assign criterion met. If not, assign criterion not met.

Answered cases to consult:
• ARKELPIFDYIHIDALE [SIR3] = criterion not met
• ISKHSKQAIYTRAAASE [RPS25B] = criterion not met

Check if protein stability index >= 3 (inclusive). Item: HQGTPLGSHSSSQKDGN [REC8] criterion met

Check if protein stability index >= 3 (inclusive). Item: NKGLVVSPYDYNHKRVS [DIB1] criterion not met
